The reported numbers originate from the Kinase Knowledgebase extract (Sharma et al. 2016).

Quick reference: inhibition of the listed items.
Molecular target: CDK2 (UniProt P24941)
Assay: Enzyme Assay
Conditions: concentration not given here
# value in %; strip the unit string

Return inhibition for the following compound: "CCCCCc1ccc(-c2csc(-c3sc(Nc4ccc(N(C)C)cc4)nc3N)n2)cc1" -6

Return inhibition for the following compound: "COc1cc(Nc2nc(N)c(-c3nc(-c4ccc(F)c(F)c4)cs3)s2)cc(OC)c1OC" -5

Return inhibition for the following compound: "COc1cc(Nc2nc(N)c(-c3nc(-c4ccc(Cl)cc4)cs3)s2)cc(OC)c1OC" 0.1

Return inhibition for the following compound: "CCOC(=O)c1nc(-c2sc(Nc3ccc(S(N)(=O)=O)cc3)nc2N)sc1Cc1ccccc1" 36

Return inhibition for the following compound: "COc1cc(Nc2nc(N)c(-c3nc(-c4ccc([N+](=O)[O-])cc4)cs3)s2)cc(OC)c1OC" -14.4

Return inhibition for the following compound: "Nc1nc(Nc2ccc(S(N)(=O)=O)cc2)sc1-c1nc(-c2cccc([N+](=O)[O-])c2)cs1" 17.8

Return inhibition for the following compound: "COc1cc(Nc2nc(N)c(-c3nc(-c4cc(C)c(O)c(C)c4)cs3)s2)cc(OC)c1OC" 28.4

Return inhibition for the following compound: "Nc1nc(Nc2ccc(S(N)(=O)=O)cc2)sc1-c1nc(-c2ccc(F)cc2)cs1" 27

Return inhibition for the following compound: Nc1nc(Nc2ccc(S(N)(=O)=O)cc2)sc1C1=NC2(O)OCCC2S1 (centres undefined) 29

Return inhibition for the following compound: "Cc1c(-c2csc(-c3sc(Nc4ccc(S(N)(=O)=O)cc4)nc3N)n2)sc2ccc(Cl)cc12" 61.5

###

Target: UniProtKB P24941
Assay: Enzyme Assay
Conditions: concentration not given here
Quick reference: inhibition of the listed items.
# value in %; strip the unit string

Examples from the recorded data:
>>> df
                               entry_smiles  recorded_result
0  COc1cc(Nc2nc(N)c(-c3nc(-c4sc5ccc(Cl)cc5c4C)cs3)s2)cc(OC)c1OC             9.65
1  COc1cc(Nc2nc(N)c(-c3nc(-c4ccc5c(c4)OCCO5)cs3)s2)cc(OC)c1OC              5.4
2  COc1cc(Nc2nc(N)c(-c3nc(-c4ccc(Cl)c([N+](=O)[O-])c4)cs3)s2)cc(OC)c1OC             -4.8

Could you now look at the following molecule, please?
Look up UniProtKB P24941 data: inhibition of "COc1cc(Nc2nc(N)c(-c3nc(-c4ccc(F)cc4)cs3)s2)cc(OC)c1OC" , then report it. 35

###

Biological target: CDK2 (UniProt P24941)
Assay: Enzyme Assay
Conditions: concentration not given here
Quick reference: inhibition of the listed items.
# value in %; strip the unit string

Examples from the recorded data:
>>> print(df.to_string())
                               entry_smiles  recorded_result
0  COc1cc(Nc2nc(N)c(-c3nc(-c4ccc(C(F)(F)F)cc4)cs3)s2)cc(OC)c1OC             13.9
1  COc1cc(Nc2nc(N)c(-c3nc(-c4cccc([N+](=O)[O-])c4)cs3)s2)cc(OC)c1OC              6.6
2  COc1cc(Nc2nc(N)c(-c3nc(-c4sc5ccccc5c4C)cs3)s2)cc(OC)c1OC             23.1
3  COc1cc(Nc2nc(N)c(-c3nc(-c4ccc(OC(=O)c5ccccc5)cc4)cs3)s2)cc(OC)c1OC             14.6
4  COc1cc(Nc2nc(N)c(-c3nc(-c4ccc(-c5ccccc5)cc4)cs3)s2)cc(OC)c1OC             20.4

Return inhibition for the following molecule: "Cc1onc(-c2ccccc2)c1-c1csc(-c2sc(Nc3ccc(S(N)(=O)=O)cc3)nc2N)n1" -4.5

Return inhibition for the following molecule: "COc1cc(Nc2nc(N)c(-c3nc(-c4c(-c5ccccc5)noc4C)cs3)s2)cc(OC)c1OC" 13.6

Return inhibition for the following molecule: "COc1cc(Nc2nc(N)c(-c3nc(-c4cc(-c5ccc(Cl)c(Cl)c5)no4)cs3)s2)cc(OC)c1OC" 17.5

Return inhibition for the following molecule: "CCN(CC)c1ccc(-c2csc(-c3sc(Nc4cc(OC)c(OC)c(OC)c4)nc3N)n2)cc1" 6.3

Return inhibition for the following molecule: "COc1cc(Nc2nc(N)c(-c3nc(-c4ccc(Cl)c(Cl)c4)cs3)s2)cc(OC)c1OC" 7.3

Return inhibition for the following molecule: "COc1cc(Nc2nc(N)c(-c3nc(-c4cc5cc(Cl)ccc5o4)cs3)s2)cc(OC)c1OC" -6

Return inhibition for the following molecule: "COc1cc(Nc2nc(N)c(-c3nc(-c4c(C)c(C)c(C)c(C)c4C)cs3)s2)cc(OC)c1OC" 19.8

Return inhibition for the following molecule: "COc1cc(Nc2nc(N)c(-c3nc(-c4cc(Br)c(Cl)s4)cs3)s2)cc(OC)c1OC" -0.2

Return inhibition for the following molecule: "COc1cc(Nc2nc(N)c(-c3nc(-c4ccccc4[N+](=O)[O-])cs3)s2)cc(OC)c1OC" 1.9

Return inhibition for the following molecule: "CC(C)c1ccc(Nc2nc(N)c(-c3nc(-c4ccc(Cl)cc4Cl)cs3)s2)cc1" 15.1

Return inhibition for the following molecule: "COc1cc(Nc2nc(N)c(-c3nc(-c4csc5ccccc45)cs3)s2)cc(OC)c1OC" 9.1

Return inhibition for the following molecule: "COc1cc(Nc2nc(N)c(-c3nc(-c4ccc5ccccc5c4)cs3)s2)cc(OC)c1OC" 11.6

Return inhibition for the following molecule: "COc1cc(Nc2nc(N)c(-c3nc(-c4ccccc4OC(C)=O)cs3)s2)cc(OC)c1OC" 1.6
